Target: human cathepsin K (UniProt P43236)
Experiment: Cathepsin K Assay (hrbCat K)
Type: biochemical
Conditions: Z-Leu-Arg-AMC substrate, pH 5.5, 15 min preincubation; read-out: hrbCat K (IP (nM))
Method: Cathepsin K Assay (hrbCat K) Then 0.5 μL of DMSO from each dilution were added to 18.75 μL of assay buffer (MES, 50 mM (pH 5.5); EDTA, 2.5 mM; DTT, 2.5 mM and 10% DMSO) containing human cathepsin K (0.4 nM) in assay buffer solution. The assay solutions were mixed for 5-10 seconds on a shaker plate and incubated for 15 minutes at room temperature. […] Percent of inhibition were calculated by fitting experimental values to standard mathematical model for dose response curve.
recordedEndpoint: IC50 (nM)

• N#CC1(NC(=O)[C@@H]2CC(F)(F)CC[C@H]2c2nc(CC(F)(F)F)sc2-c2ccc(N3CCS(=O)(=O)CC3)cc2)CC1 = 1.6
• C[C@@H](C#N)NC(=O)[C@@H]1CCCC[C@H]1c1nc(C(C)(C)CO)sc1-c1ccc(N2CCS(=O)(=O)CC2)cc1 = 1.6
• CS(=O)(=O)N1CCN(C(=O)c2ccc(-c3sc(-c4ccc(F)cc4)nc3[C@@H]3CCC(F)(F)C[C@H]3C(=O)NC3(C#N)CC3)cc2)CC1 = 1.9
